Test system: M14 melanoma
protocol_summary: NCI-60 one-dose screen, 48 h (100 = growth as untreated, 0 = no growth, -100 = all killed)
assay_context: 10 µM unless noted
About 83,000 compounds went through this panel and 20% of them were active in at least one assay; those are over-represented in the sample as a whole.
# growth per entry
Quick note: give the figure in %, leave out the unit.

Answered cases to consult:
// lookup growth for C#CCOc1cccc(Nc2ncnc3ccc(NC(=O)CCl)cc23)c1
-47.8

Recorded growth for COc1cc(CNC(=O)CCCC/C=C/C(C)C)ccc1OCc1nnc(Nc2ccc([N+](=O)[O-])cc2)o1 , please?
66.4

Others:
Which growth value is on record for CC1=NN(c2nc(SCC(=O)Nc3nc4ccc(C)cc4s3)nc(-c3ccccc3)c2C#N)C(=O)C1 ?
109

I have this molecule here, CCCCCOc1ccc(C(=O)/C(Br)=C/C(=O)O)cc1 , and I need its recorded growth.
56.8

###

System: M14 melanoma
protocol_summary: NCI-60 one-dose screen, 48 h (100 = growth as untreated, 0 = no growth, -100 = all killed)
assay_context: 10 µM unless noted
About 83,000 compounds went through this panel and 20% of them were active in at least one assay; those are over-represented in the sample as a whole.
reported_endpoint: growth (%)
Please respond with the number in % and leave the unit unwritten.

Example compounds with recorded growth:
Requested field: growth. Item: N#CCSc1nnc2n(Cc3ccccc3)c(=O)c3c4c(sc3n12)CCCC4
109

Given the entry CCCCCC(=O)OCC(=O)O[C@@H]1C[C@]2(C(C)C)O[C@@]1(C)[C@@H]1CC[C@@H](C)[C@H]1[C@@H]2OC(=O)/C=C/c1ccccc1 , report its measured growth.
69.1

Recorded growth of CCOC(=O)c1ccc2[nH]c(O)c(C(=Nc3ccc(N(C)C(=O)CN4CCN(C)CC4)cc3)c3ccccc3)c2c1 , please.
-78.5

Need growth of CCCCCCCCCCCCCCCCCCOc1ccccc1CC(=O)NCC[N+]1(C)CCCC1 , thanks.
65.8

May I ask what growth has been recorded for Cc1ccc(/C=N/Nc2nc(Nc3ccccc3)nc(-n3nc(C)cc3C)n2)cc1 ?
42.9

Others:
Requested field: growth. Item: O=C1/C(=C\c2cn(-c3ccccc3)nc2-c2ccc(-c3cccs3)cc2)CCc2ccccc21
39.1

For O=C(/C=C/c1cn(-c2ccccc2)nc1-c1ccc([N+](=O)[O-])cc1)c1ccc(Cl)cc1 , what is its reported growth?
37.8

Any idea what growth was measured for COCCn1c(-c2csc(-c3cn(C)c4ccc(OC)cc34)n2)cc2cccnc21 ?
44.2

Requested field: growth. Item: O=c1oc2ccc([N+](=O)[O-])cc2cc1Br
104

###

Tested on: MDA-MB-231 breast
protocol_summary: NCI-60 one-dose screen, 48 h (100 = growth as untreated, 0 = no growth, -100 = all killed)
assay_context: 10 µM unless noted
Compounds without any hit were thinned out: in the full panel of roughly 83,000, 20% have a hit.
reported_endpoint: growth (%)
The reply should be a number in %, with the unit left off.

Use these answered entries as a reference point.
Hello, I am looking for reported growth with MDA-MB-231 breast for C/C(=N\NC(=O)c1ccccc1O)c1cccc(/C(C)=N/NC(=O)c2ccccc2O)n1 . Could you help?
52.7

// fetch MDA-MB-231 breast growth for COc1cc(/C=C\c2cc(/C=C\c3ccc(O)c(OC)c3)n(C(=O)COc3ccc(Cl)cc3Cl)n2)ccc1O
10.1

Hello, I am looking for reported growth with MDA-MB-231 breast for C/C(=C(/c1ccc(Cl)cc1)c1ccc(OCCN2CCCC2)cc1)c1ccc(Cl)cc1 . Could you help?
94

Lab note: need growth for COc1ccc2cc(-c3ccc(NC(C)=O)c(=O)o3)ccc2c1 on MDA-MB-231 breast, anyone have it?
110

# query: growth | item O=C(Nn1c2c(sc1=NCc1ccccc1)C(=O)c1ccccc1C2=O)c1cc2ccc1CCc1ccc(cc1)CC2 | system: MDA-MB-231 breast
40.4

New cases:
Form field - read-out: growth; system: MDA-MB-231 breast; submitted item: Cc1cc(Cl)ccc1NC(=O)c1cc2ccccc2cc1O
23.7

Param readout = growth; param system = MDA-MB-231 breast; param query = C[C@]12C=CC(=O)C=C1CCC1C2[C@@H](O)C[C@@]2(C)C1CC[C@]2(O)C(=O)COC(=O)CCC(=O)O (some centres undefined) ; response: value
94.7

Notebook entry, MDA-MB-231 breast assay: growth of N#C/C(=C\c1ccc(Br)cc1)n1nnc2ccc(F)cc21 = ?
-11.4

Find the measured growth: item CN1CCN(c2ccc(NC(=O)c3cncnc3Nc3ccc(OCc4ccccn4)c(Cl)c3)cc2)CC1 , target or system MDA-MB-231 breast.
-11.2
